# assay: Acute toxicity (LD50) in mouse
# Assay type: in vivo
# assay.setup: in vivo, intravenous, 10 days observation, read-out: LD50, mouse, intrav. admin.
assay.readout: LD50 at 240 h (mg/kg)
Numbers only, in mg/kg.

Guide cases for LD50 at 240 h, answers given:
>  <compound>
CN(C)Cc1ccc(CSCCNC(=C[N+](=O)[O-])N2CCCCC2)o1

>  <recorded.measurement>
90

$$$$
>  <compound>
CC1CCN(C(=C[N+](=O)[O-])NCCSCc2ccc(CN(C)C)o2)CC1 [AU/002]

>  <recorded.measurement>
100

$$$$
>  <compound>
CN(C)Cc1ccc(CSCCNC(=C[N+](=O)[O-])N[C@H]2C[C@H]3CC[C@@H]2C3)o1 (relative stereo) [AU/019]

>  <recorded.measurement>
100

$$$$
>  <compound>
CN(C)Cc1ccc(CSCCNC(=C[N+](=O)[O-])N2CCOCC2)o1 [AU/018]

>  <recorded.measurement>
90

$$$$
>  <compound>
CN(C)Cc1ccc(CSCCNC(=C[N+](=O)[O-])NC2CCCCCC2)o1 [AU/015]

>  <recorded.measurement>
100

$$$$

// input: 2 compounds below; output: LD50 at 240 h for each
1. CN(C)Cc1ccc(CSCCNC(=C[N+](=O)[O-])NC2CCCCC2)o1 [AU/009]
2. CN(C)Cc1ccc(CSCCNC(=C[N+](=O)[O-])N2CCC(Cc3ccccc3)CC2)o1 [AU/005]

Key:
100
95

Here are 2 compounds. What values of LD50 at 240 h were reported for them?
1. CCN1CCCC(NC(=C[N+](=O)[O-])NCCSCc2ccc(CN(C)C)o2)C1 (stereo not drawn) [AU/003]
2. CN(C)Cc1ccc(CSCCNC(=C[N+](=O)[O-])NN2CCCCCC2)o1 [AU/014]

Key:
1. 90
2. 90

###

# assay: Acute toxicity (LD50) in mouse
# Assay type: in vivo
# assay.setup: in vivo, oral, Litchfield and Wilcoxon, 10 days observation, read-out: LD50, mouse, oral admin.
assay.readout: LD50 at 240 h (mg/kg)
Numbers only, in mg/kg.

Below: 3 compounds and their reported LD50 at 240 h.
>  <compound>
CN(C)Cc1ccc(CSCCNC(=C[N+](=O)[O-])N2CCCCCC2)o1

>  <assay.readout>
LD50 at 240 h

>  <units.of.measure>
mg/kg

>  <recorded.measurement>
2700

$$$$
>  <compound>
CN(C)Cc1ccc(CSCCNC(=C[N+](=O)[O-])N2CCCCC2)o1

>  <assay.readout>
LD50 at 240 h

>  <units.of.measure>
mg/kg

>  <recorded.measurement>
2600

$$$$
>  <compound>
CN(C)Cc1ccc(CSCCNC(=C[N+](=O)[O-])N[C@H]2C[C@H]3CC[C@@H]2C3)o1 (relative stereo)

>  <assay.readout>
LD50 at 240 h

>  <units.of.measure>
mg/kg

>  <recorded.measurement>
2600

$$$$

Hi, could you look up LD50 at 240 h for each item in my list?
1. CC1CCN(C(=C[N+](=O)[O-])NCCSCc2ccc(CN(C)C)o2)CC1
2. CN(C)Cc1ccc(CSCCNC(=C[N+](=O)[O-])N2CCC(Cc3ccccc3)CC2)o1
3. CN(C)Cc1ccc(CSCCNC(=C[N+](=O)[O-])N2CC2)o1
4. CN(C)Cc1ccc(CSCCNC(=C[N+](=O)[O-])N2CCOCC2)o1
5. CN(C)Cc1ccc(CSCCNC(=C[N+](=O)[O-])NN2CCCCCC2)o1

Key:
2700
2700
2800
2700
2600
